Consider the following variants; for each one, report its protein stability index.
B1: TOR1AIP2 (parent)
chain: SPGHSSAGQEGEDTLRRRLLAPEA

variants of: B1; experiment: protein stability index of a GFP-peptide fusion (GPS, HEK-293T) (PSI 1-6); higher = more stable; conditions: c terminus: a fixed tail appended;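 note: lentivirally expressed fusions sorted by FACS into six bins by GFP to DsRed ratio, PSI derived from sequencing read proportions per bin multiplied by bin number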
Give bare numbers.

// solved cases for protein stability index follow
# variant.annotation, protein stability index
measured = [
    ("E10D", 3.94),
    ("Q9Y", 3.68),
    ("P22R", 4.99),
    ("R16W", 3.52),
]

Q) GET /values?readout=protein stability index&item= "L19G"
A) 5.45
